# System: UACC-62 melanoma
# testDetails: NCI tumour cell line growth inhibition, 48 h
endpoint: log10 of TGI (log10 of the value in µM)
Scale type: logarithmic (base 10). Underlying TGI unit: µM.

Query string: Item under review: N#CC1=C(N)NC(=S)NC12Nc1ccccc1S2 (stereo not drawn) . Reported log10 of TGI?
Result string: 1.75

Query string: Item under review: O=C(C=P(c1ccccc1)(c1ccccc1)c1ccccc1)CCl . Reported log10 of TGI?
Result string: 0.46

----------
# Test system: T-47D breast
# testDetails: NCI tumour cell line growth inhibition, 48 h
endpoint: TGI

CC(=O)NC(Cc1ccccc1)NC(=O)O (stereo not drawn); > 100 µM
CC(C)(C)OC(=O)N1C(OP(=O)(Oc2ccccc2)Oc2ccccc2)=CSc2ccccc21; > 100 µM
O=C1OC(C2Cc3ccc4c(c3C2=O)CCC4)c2ccccc21 (stereo not drawn); > 100 µM

Query string: Find TGI (T-47D breast) for the entry CC1(C)N=C(N)N=C(N)N1c1ccc(Cl)cc1
Result string: > 100 µM

Query string: Find TGI (T-47D breast) for the entry N/N=C(\c1nc2ccc([N+](=O)[O-])cc2[nH]c1=O)C(O)c1ccc(Cl)c(Cl)c1 (stereo not drawn)
Result string: > 100 µM

----------
Entries annotated with measured TGI
# System: NCI-H460 lung
# testDetails: NCI tumour cell line growth inhibition, 48 h
# unit: µM | format: bare number

C/C=C/C=C\C=C/C(O)C(C)C(CCC(C)C1OC(=O)C=CC1C)OP(=O)(O)O (stereo not given); 1.76

// moving on: another record for TGI
Query string: Item under review: O=C(NCCCNCCN1C(=O)c2cccc3cc([N+](=O)[O-])cc(c23)C1=O)c1cc(-c2ccccc2)nc2ccccc12 . Reported TGI?
Result string: 12.6

----------
# Test system: HS 578T breast
# testDetails: NCI tumour cell line growth inhibition, 48 h
endpoint: TGI

Below: 4 molecules and their reported TGI.
COc1cc(/C=N/c2nc3cc4sc(/N=C/c5cc(OC)c(OC)c(OC)c5)nc4cc3s2)cc(OC)c1OC; > 100 µM
Oc1ccc2ccccc2c1N=Nc1cc(Cl)ccc1Cl; 21.4 µM
CCOC(=O)c1ccc(C(=O)n2ccnc2)[nH]1; > 100 µM
CCOC(=O)CCC(C(=O)OCC)n1nc2ccc(Nc3c(C)[n+]([O-])c4cc(F)c(OCC)cc4[n+]3[O-])cc2n1 (stereo not given); 90.7 µM

Query string: Find TGI (HS 578T breast) for the entry O=C1/C(=C/c2ccc(O)cc2)CCc2ccc([N+](=O)[O-])cc21
Result string: > 79.8 µM

Query string: Find TGI (HS 578T breast) for the entry O=c1cnnc(N/N=C/c2ccccc2O)[nH]1
Result string: > 100 µM

Query string: Find TGI (HS 578T breast) for the entry O=C(CSCC(=O)N/N=C/c1ccccc1)N/N=C\c1ccccc1
Result string: > 100 µM

Query string: Find TGI (HS 578T breast) for the entry NC(=S)N/N=C1\c2ccccc2-c2c(F)c(F)c(F)c(F)c21
Result string: 39.5 µM

Query string: Find TGI (HS 578T breast) for the entry COc1cc2cc(C(=O)N3CC(CCl)c4ccc([N+](=O)[O-])cc43)[nH]c2c(OC)c1OC (stereo not given)
Result string: > 100 µM

Query string: Find TGI (HS 578T breast) for the entry O=C(O)CC(NC(=O)/C(=C/c1ccccc1)NC(=O)c1ccccc1)C(=O)O (stereo not given)
Result string: > 100 µM

meta.source: PubChem BioAssay (NCI)
